Reference source for all entries: a collection of fitness landscapes (doi:10.1016/j.celrep.2020.107928)

B1: Caulobacter ParB omega fusion; a variant is named by its letters at X, in order, B8GW30 (parent)
chain: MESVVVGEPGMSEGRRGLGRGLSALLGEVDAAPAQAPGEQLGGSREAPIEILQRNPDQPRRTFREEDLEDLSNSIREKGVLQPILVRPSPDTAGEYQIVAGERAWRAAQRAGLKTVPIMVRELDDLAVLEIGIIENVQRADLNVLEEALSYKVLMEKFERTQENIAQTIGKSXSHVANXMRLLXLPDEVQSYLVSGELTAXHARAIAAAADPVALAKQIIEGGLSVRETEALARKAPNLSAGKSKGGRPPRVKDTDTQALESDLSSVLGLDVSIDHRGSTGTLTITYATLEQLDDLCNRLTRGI

Variants of: B1
Assay: one-hybrid fitness for binding parS DNA (scaled: cognate 1, non-cognate 0); higher = stronger binding
Conditions: with parS DNA site
Whole data set: some 81,000 sequences, median “one-hybrid fitness for binding parS DNA” near -0.17, cut for the highest 2% near 0.51. The sample as a whole holds a higher share of the highest values than the screen did.
// one-hybrid fitness for binding parS DNA lookup, one value per entry

SDGC	≤ 0.2
RPTS	≤ 0.2
RFTP	≤ 0.2
RLTP	≤ 0.2
RVHC	0.965
RRGF	≤ 0.2

Form: variant = MLAT ; one-hybrid fitness for binding parS DNA = ≤ 0.2

// recorded one-hybrid fitness for binding parS DNA for DLCC : ≤ 0.2

Field one-hybrid fitness for binding parS DNA (entry FSEV ) reads ≤ 0.2

Notebook: RRYK , one-hybrid fitness for binding parS DNA read as ≤ 0.2

Field one-hybrid fitness for binding parS DNA (entry RTPQ ) reads ≤ 0.2

So for RCRM , the logged one-hybrid fitness for binding parS DNA turned out to be 0.365
